- tested_system: Regulator of G-protein signaling 16 (Homo sapiens) + Guanine nucleotide-binding protein G(o) subunit alpha (Homo sapiens) (UniProt O15492+P09471)
- Sequence (O15492 whole entry, looked up): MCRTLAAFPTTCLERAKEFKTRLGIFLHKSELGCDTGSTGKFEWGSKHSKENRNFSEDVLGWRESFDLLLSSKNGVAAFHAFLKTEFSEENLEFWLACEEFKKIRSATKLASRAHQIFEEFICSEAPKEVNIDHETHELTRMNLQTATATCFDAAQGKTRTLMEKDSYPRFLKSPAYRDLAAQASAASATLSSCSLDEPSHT
- Sequence (P09471 whole entry, looked up): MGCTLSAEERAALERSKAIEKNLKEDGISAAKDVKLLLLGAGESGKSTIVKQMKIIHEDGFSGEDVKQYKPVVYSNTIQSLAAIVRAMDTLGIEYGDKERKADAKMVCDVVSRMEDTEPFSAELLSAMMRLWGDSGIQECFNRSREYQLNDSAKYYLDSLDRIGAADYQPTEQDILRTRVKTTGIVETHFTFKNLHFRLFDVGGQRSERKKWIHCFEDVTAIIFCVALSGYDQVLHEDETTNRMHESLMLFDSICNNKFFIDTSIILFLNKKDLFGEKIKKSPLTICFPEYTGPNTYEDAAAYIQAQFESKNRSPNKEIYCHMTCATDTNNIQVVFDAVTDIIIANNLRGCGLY
- assay_notes: modulators of RGS16 binding to Galphao, primary screen, biochemical, human proteins, multiplexed bead flow cytometry (AID 1441);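 also: Galphao activated by GDP with aluminum fluoride before binding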
- reported_conditions: bead-based flow cytometry RGS16-Galphao binding, fluorescence; at 10 µM; actives lie on both sides
Out of some 220,000 compounds screened, about 830 (0.38%) were called active. No rule for the calls is given here. The list comes from a sample in which actives are over-represented; it also holds close analogues and randomly drawn compounds.
Outcomes: Y (active), N (inactive)

{"compound": "C/C=C/C(=O)OCC(=O)Nc1ccc(F)cc1Cl", "label": "N"}
{"compound": "COc1ccc2c(c1)CC[C@@H]1[C@@H]2CC[C@]2(C)C(=O)CC[C@@H]12", "label": "N"}
{"compound": "Oc1ccc(N=Nc2nccs2)c(O)c1", "label": "Y"}
{"compound": "COC(=O)C1=C(Nc2ccc(C)cc2)C=C(C)C(C(=O)OC)C1c1ccc(F)cc1 (centres undefined)", "label": "N"}
{"compound": "Cc1cc(NC(=O)COc2ccc(Cl)cc2Cl)n(CCC#N)n1", "label": "N"}
{"compound": "COc1cccc(C2Nc3cccc4cccc(c34)N2)c1", "label": "N"}
{"compound": "CC(=O)N1N=C(c2ccncc2)OC1(Cc1ccccc1)Cc1ccccc1", "label": "N"}
{"compound": "Cc1ccc(N2C(=O)C3CC3C2=O)cc1 (centres undefined)", "label": "N"}
{"compound": "Cc1cc(C)cc(N(CC(=O)Nc2c(C)n(C)n(-c3ccccc3)c2=O)S(C)(=O)=O)c1", "label": "Y"}
{"compound": "Cc1cc(C)n(CC(O)CN(c2ccccc2)S(=O)(=O)c2ccc3ccccc3c2)n1 (centres undefined)", "label": "Y"}
{"compound": "COc1ccc(NC(=O)Cn2c(=O)n(Cc3ccco3)c(=O)c3ccccc32)cc1", "label": "N"}
{"compound": "C/C=C/c1ccc(OCCCCN2CCC(C)CC2)c(OC)c1", "label": "N"}
{"compound": "Cc1ccc(N2C(=O)C(Cc3ccccc3)NC2=S)cc1 (centres undefined)", "label": "N"}
{"compound": "COc1ccc2[nH]c(C(=O)Nc3ccccc3Cl)cc2c1", "label": "N"}
{"compound": "Cc1ccsc1C1C(C#N)=C(N)OC2=C1C(=O)CC(C)(C)C2 (centres undefined)", "label": "N"}
{"compound": "CSc1sc(C(=O)NNC(=O)c2ccc(Cl)cc2)c2c1C=CCC2", "label": "N"}
{"compound": "CCCn1nnnc1NC(=O)COc1ccc(Cl)cc1C", "label": "Y"}
{"compound": "O=C(Nc1ccc(S(=O)(=O)Nc2nccs2)cc1)c1cc(=O)[nH]c2ccccc12", "label": "N"}
{"compound": "NC(=O)Cc1ccc2sc(-c3ccccc3)nc2c1", "label": "Y"}
{"compound": "CCCC1C(c2ccccc2)C(C#N)(C#N)C2(C#N)CC1(N)NC2=O (centres undefined)", "label": "Y"}
{"compound": "COc1ccccc1C(=O)n1nc(-c2ccccc2)nc1N", "label": "N"}
{"compound": "O=C(Nc1ccccc1)c1cc2ccccc2[nH]1", "label": "Y"}
{"compound": "Cc1cs/c(=N\\N=C\\c2ccc(O)cc2)n1Cc1ccco1", "label": "N"}
{"compound": "CCOc1c(Nc2cccc(Cl)c2)c(=O)c1=O", "label": "N"}
